Tested on: SARS-CoV-2
Format: cell-based
endpoint.label: reduction of viral RNA abundance compared to the vehicle (DMSO)

INSERT INTO assay_data (molecular_string, recorded_value) VALUES
  ('CCCCCNC(=O)c1ccc(NC(=O)CCl)s1', '~5 order of magnitude'),
  ('COc1ccccc1NC(=O)c1cc(NC(=O)CCl)cs1', '~5 order of magnitude'),
  ('COc1cccc(NC(=O)c2cc(NC(=O)CCl)cs2)c1', '~5 order of magnitude'),
  ('CCCCCNC(=O)c1cccc(NC(=O)CCl)c1', '~2 order of magnitude');
